TEST_METHOD_NOTES: Microsomal stability assay, liver microsome half-life (human)
Assay type: in vitro ADME
TEST_CONTEXT: pH 7.4; human liver microsomes 0.5 mg/mL, 1 μM compound, 37° C.; read-out: Liver microsome T1/2 Human
METRIC: half-life at 1 μM

>  <COMPOUND>
CS(=O)(=O)NC12CC(COc3ccc4c(c3)CCC4c3cc(Cl)c(OCCCl)c(C#N)c3)(C1)C2 (stereo not drawn)

>  <MEASURED_RESULT>
1.48 h

$$$$
>  <COMPOUND>
CS(=O)(=O)Nc1nccc(COc2ccc3c(ccn3-c3cc(Cl)c(OCCCl)c(C#N)c3)c2)n1

>  <MEASURED_RESULT>
> 2 h

$$$$
>  <COMPOUND>
CC(C)(c1ccc(-c2ccc3nc(NS(C)(=O)=O)nc(N)c3c2)cc1)c1cc(Cl)c(OCCCl)c(C#N)c1

>  <MEASURED_RESULT>
> 2 h

$$$$
>  <COMPOUND>
CC(C)(c1ccc(OCc2ccnc(NS(C)(=O)=O)n2)cc1)c1cc(Cl)c2c(c1)OCCO2

>  <MEASURED_RESULT>
> 2 h

$$$$
>  <COMPOUND>
CS(=O)(=O)NC1CCN(Cc2ccc3c(ccn3-c3cc(Cl)c(OCCCl)c(C#N)c3)c2)CC1

>  <MEASURED_RESULT>
> 2 h

$$$$
>  <COMPOUND>
CS(=O)(=O)Nc1ncc(Cn2ncc3c(-c4cc(Cl)c(OCCCl)c(C#N)c4)cccc32)cn1

>  <MEASURED_RESULT>
> 2 h

$$$$

State the recorded half-life at 1 μM for this entry: CC(C)(c1ccc(OC[C@H](O)CNS(C)(=O)=O)cc1)c1cc(Cl)c(OC[C@H](O)CCl)c(Cl)c1 [X, reference compound]
> 2 h

Same again, this time with "CS(=O)(=O)Nc1nccc(COc2nnc(-c3cc(Cl)c(OCCCl)c(C#N)c3)s2)n1"
> 2 h

Let us now turn to CC(c1cc(Cl)c(OCCCl)c(C#N)c1)n1cc(-c2ccc3nc(NS(C)(=O)=O)ncc3c2)cn1 (stereo not drawn)
> 2 h

For CC(Oc1ccc2c(ccn2-c2cc(Cl)c(OCCCl)c(C#N)c2)c1)C12CC(NS(C)(=O)=O)(C1)C2 (stereo not drawn) then?
> 2 h

// repeat for "CC(C)(c1ccc(-c2cnc3nc(NS(C)(=O)=O)ccc3c2)cc1)c1cc(Cl)c(OCCCl)c(C#N)c1" and report
1.97 h

One more compound: CS(=O)(=O)NC1CCN(Cc2ccc3c(ccn3-c3cc(Cl)c(OCCCl)c(C#N)c3)c2)CC1(F)F (stereo not drawn)
1.88 h

Same read-out for "CS(=O)(=O)Nc1nccc(OC2CCN(C(=O)c3cc(Cl)c(OCCCl)c(C#N)c3)CC2)n1" ?
> 2 h

Thanks! And CS(=O)(=O)Nc1nccc(COc2ccc3c(c2)CCCC3c2cc(Cl)c(OCCCl)c(C#N)c2)n1 (stereo not drawn) ?
> 2 h

Do the same for "CS(=O)(=O)Nc1nccc(OCC23CC(C(=O)c4ccc(OCCCl)cc4)(C2)C3)n1" please
1.4 h
